- Measurement target: human TG2 (Homo sapiens, UniProt P21980)
- Sequence (P21980 whole entry): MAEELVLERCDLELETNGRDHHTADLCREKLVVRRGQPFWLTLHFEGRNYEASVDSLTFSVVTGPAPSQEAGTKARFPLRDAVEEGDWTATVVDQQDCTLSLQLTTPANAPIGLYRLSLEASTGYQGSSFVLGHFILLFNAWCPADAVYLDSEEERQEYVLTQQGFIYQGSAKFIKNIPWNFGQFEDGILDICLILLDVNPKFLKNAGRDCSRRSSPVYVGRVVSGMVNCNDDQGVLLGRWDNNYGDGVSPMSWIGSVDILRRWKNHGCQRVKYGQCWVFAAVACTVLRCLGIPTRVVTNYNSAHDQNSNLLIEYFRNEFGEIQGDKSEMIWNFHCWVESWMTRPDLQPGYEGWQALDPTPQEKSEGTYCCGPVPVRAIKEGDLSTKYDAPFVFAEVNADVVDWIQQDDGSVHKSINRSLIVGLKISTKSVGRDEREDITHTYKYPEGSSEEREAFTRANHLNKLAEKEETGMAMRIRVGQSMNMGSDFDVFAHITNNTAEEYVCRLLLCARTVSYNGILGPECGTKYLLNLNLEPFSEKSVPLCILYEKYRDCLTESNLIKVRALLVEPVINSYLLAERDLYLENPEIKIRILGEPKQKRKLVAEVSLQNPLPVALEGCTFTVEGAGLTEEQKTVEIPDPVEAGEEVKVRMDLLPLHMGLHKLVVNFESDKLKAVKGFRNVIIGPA
- Experiment: fluorescent screening assay for human TG2
- Format: biochemical
- Stated conditions: Table 7; 20 nM TG2, 37° C.; read-out: IC50
pIC50: −log10 of the molar value.
Test readout: pIC50

Please review the following examples before continuing.
C=CC(=O)NCCCC[C@H](NC(=O)OCc1ccccc1)C(=O)N1CCN(C(=O)C23CC4CC(CC(C4)C2)C3)CC1 : > 7.00
C=CC(=O)NCCCC[C@H](NC(=O)OCc1ccc(C(F)(F)F)cc1)C(=O)O : 4.00 to 6.00
C=CC(=O)Nc1ccc(C[C@H](NC(=O)OCc2ccccc2)C(=O)O)cc1 : 4.00 to 6.00

What value of pIC50 has been reported for the following compound? `C=CC(=O)NCCCC[C@@H](CO)NC(=O)OCc1ccccc1`
4.00 to 6.00

What value of pIC50 has been reported for the following compound? `C=CC(=O)NCCCC[C@H](NC(=O)OCc1ccccc1)C(=O)N1CCCC1`
6.00 to 7.00
